Test: NCI Yeast Anticancer Drug Screen. Data for the bub3 strain (AID 167)
Conditions: S. cerevisiae bub3 mutant strain, at 50.0 µM, stronger effect = higher value
The panel holds about 79,000 compounds, 15% with a hit somewhere; the sample as a whole holds those more often.
readout label: growth inhibition (%)
Kindly provide the numeric value in % only, without the unit symbol.

What growth inhibition value was documented for this compound, CC[N+](C)(CC)CCOC(=O)C(c1ccccc1)C(O)C1CC=CCC1 (stereo unspecified) ?
-1.45

Which growth inhibition value belongs to `Fc1cccc(-c2nnc(-c3ccccc3)o2)c1` ?
37.8

Give the measured growth inhibition of CC(=O)c1ccc(NC(=O)/C(=N\NC(N)=O)C(C#N)CC(C)(C)C=O)cc1 (stereo unspecified) .
33.6

Param item = `Fc1ccc(-c2nnc(-c3ccccc3)o2)cc1` ; retrieve measured growth inhibition.
31.4

Report growth inhibition for `Cc1cc(-c2ccccc2)[nH]c1-c1nccc2ccccc12` please.
-4.5

Fill in the blank: the reported growth inhibition of `Brc1ccc(Br)c2nc(/C=C/c3ccccc3)ccc12` is ____.
2.45

Give its growth inhibition value. Item: `CCn1c(SCC(=O)N/N=C/c2ccccc2)nc2ccccc2c1=O`
-1.3

Looking for the measured growth inhibition of `Nc1nnc2nc(C(C(=O)c3cccc(O)c3)c3nc4nnc(N)n4[nH]c3=O)c(=O)[nH]n12` , can you help?
1.2

// query growth inhibition value for entry C[C@@H]1CC[C@@]2(C)C(C(=O)O)=CCCC2[C@@]1(C)CC(=O)c1ccoc1 (stereo partly specified)
-42.5

What does the record list as growth inhibition for `CCOC(=O)[C@@]12[C@H](N3C(=O)c4ccccc4C3=O)C(=O)N1CCS2(=O)=O` ?
-1.5

Find the recorded growth inhibition belonging to `NNC(N)=Nc1cccc2ccccc12` and report it.
11.4

----------
Give measured growth inhibition for each item. Keep answers brief.
Test: NCI Yeast Anticancer Drug Screen. Data for the mec2-1 strain (AID 157)
Conditions: S. cerevisiae mec2-1 strain, at 50.0 µM, stronger effect = higher value
The panel holds about 79,000 compounds, 15% with a hit somewhere; the sample as a whole holds those more often.
API: value field is a number in %; no unit string.

Recorded growth inhibition of `Cn1c(=O)c2c(nc(Br)n2CC(=O)c2ccc([N+](=O)[O-])cc2)n(C)c1=O` , please.
16.1

What growth inhibition value was documented for this compound, `NC(=O)N/N=C1\CCn2cccc21` ?
1

Field request: growth inhibition | item: `CCCC(SCC(=O)O)SCC(=O)O`
-6.05

Give the measured growth inhibition of `CCOC(=O)C(=C/C=C/NCCc1c[nH]c2ccccc12)C(=O)OCC` .
-44.5

# growth inhibition lookup, item CC(C)c1ccccc1[S+]1OC(C)(C)c2ccccc21 (stereo not given)
21.9

Looking for the measured growth inhibition of O=NN(CC1(O)OCC(O)C(O)C1O)C(Cc1c[nH]c2ccccc12)C(=O)O (stereo not given) , can you help?
-22.9

Tell me the measured growth inhibition of CC12CCC3C(CC=C4CC(O)CCC43C)C1CCC(=O)N2 (stereo not given) , please.
-3.55

# growth inhibition lookup, item `CC(=O)NCC(=O)O`
-8.75

Name the reported growth inhibition value associated with the compound CC(C)SC(C)(NC(=O)C1C(C)(C)CCC1(C)C)C(=O)O (stereo not given)
1.45

If you can, please state the reported growth inhibition value of `NC(=O)NNc1ccccc1` .
6.2

So what's the measured growth inhibition for this one? `O=C(C[n+]1ccc2ccccc2c1)c1ccc(Br)cc1`
12.3

What does the data say about its growth inhibition? Entry: `Cc1sc2nc3n(c(=O)c2c1C)N=CN(c1ccccc1)C3`
4

GET /values?readout=growth inhibition&item= CC(=O)NC1C(O)C(O)C(CO)OC1n1nc(SCc2ccccc2)c(=O)[nH]c1=O (stereo not given)
11.9

Look up growth inhibition: `N#CCC(=O)N1CCCCC1`
-12.1

Entry `CC(C)(N)CNc1ccccc1` has what growth inhibition?
-4.95

Which growth inhibition value is on record for `Cc1ccc(S(=O)(=O)OCOS(=O)(=O)c2ccc(C)cc2)cc1` ?
22.2

I would be grateful if you could share the reported growth inhibition for `CCN(CC)CCN=C1Nc2ccccc2N(O)N1` .
-1.5

I have this compound here, `COCCCNC(=O)CC(=O)NCCCOC` , and I need its recorded growth inhibition.
-2.3

Tell me the measured growth inhibition of O=C(CC1=NC2NN(c3ccccc3)C(=O)C2=C1CC(=O)c1ccc([N+](=O)[O-])cc1)c1ccc([N+](=O)[O-])cc1 (stereo not given) , please.
-11.4

Value lookup for growth inhibition; key = `O=C(/C=C/c1cccc2ccccc12)c1ccccc1Cl`
-9.25

I have this compound here, `COc1cccc(N2C(=O)/C(=C/c3ccc(N(CCC#N)CCC#N)cc3)N=C2c2cc([N+](=O)[O-])ccc2Cl)c1` , and I need its recorded growth inhibition.
27.9

Which growth inhibition is reported for this compound? `O=C(Cl)C(Cl)(c1ccccc1)c1ccccc1`
13.6

// query growth inhibition value for entry `CCc1ccc(O[Si](C)(C)C)cc1`
3.25

Entry NC(CC1C=CCCC1)C(=O)O (stereo not given) : reported growth inhibition = ?
-16.1

Look up growth inhibition: Cc1ccc(C2CCC(C#N)=CN2C)cc1 (stereo not given)
-0.25
